Recorded z-score for the following compounds
MEASUREMENT DESCRIPTION: MM1S cell viability effects, profiling panel, calcein-AM fluorescence, 48 h, basal (AID 1165);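 further: viability of MM1S multiple myeloma cells under basal unstimulated conditions; test concentration not given here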
EXPERIMENTAL CONTEXT: higher = more signal

Data request, read-out z-score, for C=CCNC(=O)[C@@H]1[C@H]2C(=O)O[C@H](c3ccccc3)[C@H](c3ccccc3)N2[C@H](c2ccc(OCCO)cc2)[C@@]12C(=O)Nc1ccc(C#CCCO)cc12 -0.563

# query: z-score of entry C=CC[C@]12N=C(c3ccc(OCCCO)cc3)O[C@H]1c1ccccc1N(Cc1ccccc1)C2=O -3.44

Quick one: z-score for COc1ccc(C(O)C2C=CC3C(=O)N(C)C(=O)C3N2N2CCCCC2)c2ccccc12 (configuration not stated) ? -0.142

Which z-score is listed for [N-]=[N+]=NCc1ccccc1C[C@]1(C(=O)O)N=C(c2ccc(OCCCO)cc2)O[C@H]1c1ccccc1N=[N+]=[N-] ? -2.06

Sample O=C1O[C@H](c2ccccc2)[C@H](c2ccccc2)N2[C@H]1[C@@H](C(=O)NC[C@H](O)c1ccccc1)[C@]1(C(=O)Nc3ccccc31)[C@H]2c1ccc(OCCO)cc1 — what was its z-score? -2.53

Reported z-score for OC([C@@H]1CC(c2ccccc2)=NO1)[C@H]1CC(c2ccccc2)=NO1 (some centres not stated) : what is it? 0.703

Now, please, on to the next compound.
Given the compound O=C1C2C=CC(C(O)c3ccc(F)cc3)N(Nc3ccccc3F)C2C(=O)N1c1ccccc1 (configuration not stated) , what is its reported z-score? -0.389
